Known Ki of a selection of molecules
biological target: Rhesus PDE2A3 (Macaca mulatta); experiment: PDE2 fluorescence polarization (IMAP FP) assay, rhesus PDE2A3; assay type: biochemical, rhesus macaque; details: Lab B, read-out: Rhesus PDE2 Ki (nM) Lab B
Please reply with the bare figure in nM and do not write the unit itself.

In the examples that follow, each entry is paired with its recorded Ki.
# input Determine from records and report Ki for O=c1[nH]c(O)nc2c1c(C(F)F)nn2C(c1ccc(C(F)(F)F)cc1)C1CC1 (single isomer, unassigned) [Example 279]
# output 1.8

# input In one line, give reported Ki of the entry CC(C)C(c1ccc(C(F)(F)F)cc1)n1nc(C(F)F)c2c(=O)[nH]c(O)nc21 (single isomer, unassigned) [Example 282] .
# output 51

# input Answer with reported Ki of CC(c1ccc(C(F)(F)F)cc1)n1nc(CO)c2c(=O)[nH]c(O)nc21 (single isomer, unassigned)
# output 20

# input Return value of Ki for input CC(C)C(c1ccc(C(F)(F)F)c(F)c1)n1nc(CO)c2c(=O)[nH]c(O)nc21 (single isomer, unassigned) [Example 28] , no commentary.
# output 117

# input Could you please provide reported Ki for CCC(c1ccc(C(C)(F)F)cc1F)n1nc(CF)c2c(=O)[nH]c(N(C)C)nc21 (single isomer, unassigned) ? Thanks!
# output 0.05

Pending molecule:
# input Supply measured Ki of CC(c1ccc(OC(F)(F)F)cc1)n1nc(CF)c2c(=O)[nH]c(N(C)C)nc21 (single isomer, unassigned) [Example 165] in your reply.
# output 0.28

###

Below, each of the molecules is paired with its reported Ki value.
molecular target: Rhesus PDE2A3 (Macaca mulatta, UniProt B3VTJ2); assay: PDE2 fluorescence polarization (IMAP FP) assay, rhesus PDE2A3; type: biochemical, rhesus macaque; conditions: Lab B, read-out: Rhesus PDE2 Ki (nM) Lab B
Sequence (B3VTJ2 1-941): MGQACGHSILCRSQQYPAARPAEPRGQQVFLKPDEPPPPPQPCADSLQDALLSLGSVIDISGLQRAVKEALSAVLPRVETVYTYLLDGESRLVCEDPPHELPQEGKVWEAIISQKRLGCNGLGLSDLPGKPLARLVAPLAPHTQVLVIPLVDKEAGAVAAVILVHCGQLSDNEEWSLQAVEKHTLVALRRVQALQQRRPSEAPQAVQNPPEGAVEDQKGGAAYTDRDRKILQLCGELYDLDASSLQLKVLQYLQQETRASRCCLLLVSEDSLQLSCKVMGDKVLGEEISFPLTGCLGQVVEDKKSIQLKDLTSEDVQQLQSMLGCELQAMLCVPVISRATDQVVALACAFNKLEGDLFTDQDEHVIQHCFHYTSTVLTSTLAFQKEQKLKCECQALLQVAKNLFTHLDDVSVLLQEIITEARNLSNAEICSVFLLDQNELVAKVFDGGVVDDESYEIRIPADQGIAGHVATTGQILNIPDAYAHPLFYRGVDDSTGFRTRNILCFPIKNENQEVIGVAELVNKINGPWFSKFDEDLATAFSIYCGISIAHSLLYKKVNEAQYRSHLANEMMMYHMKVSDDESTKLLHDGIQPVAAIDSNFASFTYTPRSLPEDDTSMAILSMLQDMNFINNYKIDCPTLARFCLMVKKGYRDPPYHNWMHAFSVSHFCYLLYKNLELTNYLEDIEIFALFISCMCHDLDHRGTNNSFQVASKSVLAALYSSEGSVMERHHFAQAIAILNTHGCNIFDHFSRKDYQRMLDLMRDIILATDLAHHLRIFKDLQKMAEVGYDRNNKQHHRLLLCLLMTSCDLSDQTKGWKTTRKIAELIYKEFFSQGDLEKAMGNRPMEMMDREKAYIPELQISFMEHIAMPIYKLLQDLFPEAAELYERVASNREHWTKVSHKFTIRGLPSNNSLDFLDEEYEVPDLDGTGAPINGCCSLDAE
Unit nM implied. Number only.

# input Given CCC(c1ccc(C(F)(F)F)c(F)c1)n1nc(CO)c2c(=O)[nH]c(N(C)C)nc21 (single isomer, unassigned) [Example 145] , respond with its Ki.
# output 0.13

# input # return recorded Ki for entry O=c1[nH]c(O)nc2c1c(CF)nn2C(c1ccc(C(F)(F)F)cc1)C1CC1 (stereo not shown)
# output 5.5

# input Consider the molecule CN(C)c1nc2c(c(CO)nn2C(c2ccc(C(F)F)c(F)c2)C2CC2)c(=O)[nH]1 (single isomer, unassigned) . State its measured Ki.
# output 0.97

Query molecule follows.
# input Provide Ki value for the following molecule: CN(C)c1nc2c(c(CO)nn2C(c2ccc(C(F)(F)F)cc2F)C2CC2)c(=O)[nH]1 (single isomer, unassigned) [Example 135]
# output 0.72

###

biological target: human PDE2A1 (Homo sapiens (Human), UniProt O00408); test: PDE selectivity IMAP FP assay, human PDE2A1; assay type: biochemical; settings: Human PDE2; Lab A; read-out: Human PDE2 Ki (nM) Lab A
Sequence (O00408 other isoform, or with tags, fused parts or gaps): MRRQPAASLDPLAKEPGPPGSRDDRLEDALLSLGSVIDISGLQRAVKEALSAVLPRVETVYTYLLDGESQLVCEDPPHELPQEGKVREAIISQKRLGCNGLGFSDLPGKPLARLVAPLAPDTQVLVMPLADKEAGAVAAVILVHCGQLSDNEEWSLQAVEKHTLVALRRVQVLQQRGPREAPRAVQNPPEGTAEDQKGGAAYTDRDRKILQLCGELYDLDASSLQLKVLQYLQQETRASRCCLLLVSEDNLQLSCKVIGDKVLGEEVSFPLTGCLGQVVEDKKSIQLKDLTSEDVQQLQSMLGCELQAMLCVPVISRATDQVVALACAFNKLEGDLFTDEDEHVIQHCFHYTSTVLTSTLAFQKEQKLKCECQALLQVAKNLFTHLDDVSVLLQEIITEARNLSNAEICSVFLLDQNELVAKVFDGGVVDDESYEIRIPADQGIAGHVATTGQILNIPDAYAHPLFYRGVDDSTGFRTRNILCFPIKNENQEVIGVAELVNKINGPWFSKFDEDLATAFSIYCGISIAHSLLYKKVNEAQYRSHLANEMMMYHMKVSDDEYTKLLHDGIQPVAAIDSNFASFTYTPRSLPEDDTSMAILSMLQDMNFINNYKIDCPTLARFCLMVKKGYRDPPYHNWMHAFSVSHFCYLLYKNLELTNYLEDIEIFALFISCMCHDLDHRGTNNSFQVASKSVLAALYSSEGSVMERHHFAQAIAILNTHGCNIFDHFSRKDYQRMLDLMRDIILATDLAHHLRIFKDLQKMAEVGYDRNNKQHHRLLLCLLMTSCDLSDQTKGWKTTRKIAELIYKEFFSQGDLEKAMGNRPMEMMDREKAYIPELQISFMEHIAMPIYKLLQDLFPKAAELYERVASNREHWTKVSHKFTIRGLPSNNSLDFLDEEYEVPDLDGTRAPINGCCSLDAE
metric name: Ki (nM)
Give a bare numeral; the unit nM is implied.

Some solved entries appear below for comparison.
# input Give me measured Ki, please, for this compound: CC(C)C(c1ccc(C(F)(F)F)cc1)n1nc(CF)c2c(=O)[nH]c(O)nc21 (stereo not drawn)
# output 0.56

# input // fetch Ki given entry CC(c1ccc(C(F)(F)F)cc1)n1nc(CC(F)(F)F)c2c(=O)[nH]c(O)nc21 (single isomer, unassigned) [Example 257]
# output 0.68

Others:
# input Note down Ki recorded for CC(c1ccc(S(F)(F)(F)(F)F)cc1)n1nc(CO)c2c(=O)[nH]c(O)nc21 (single isomer, unassigned)
# output 13
